- targetOrTestSystem: T1, A beta oligomer (synthetic A beta1-40, HCl form, 0.1 mg/ml in PBS, incubated at 37 degrees C for one hour) (UniProt P05067 672-711)
- T1 construct: domain: A beta1-40; non-fibrous multimer of the peptide; also called A beta 1-40 oligomer
- procedureDetails: SPR (Biacore 3000)
Give measured kon for each item. Keep answers brief.
One number for each entry, in M⁻¹ s⁻¹.

Some solved entries appear below for comparison.
[
  {
    "binder": "IR-081 antibody (antibody, mouse IgG2b, V domains shown, mouse IgG2b) VH: DVQLVESGGGLVQPGGSRKLSCAASGFTFSSFGMHWVRQAPEKGLEWVAYISSGSSTIYYADTVKGRFTISRDNPKNTLFLQMTSLRSEDTAMYYCARRWGEGAMDYWGQGTSVTVSS VL: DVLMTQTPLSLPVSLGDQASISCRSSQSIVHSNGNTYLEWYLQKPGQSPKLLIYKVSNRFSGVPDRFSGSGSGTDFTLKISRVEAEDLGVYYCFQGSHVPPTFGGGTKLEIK",
    "kon / M⁻¹ s⁻¹": 336000
  },
  {
    "binder": "IR-062 antibody (antibody, mouse IgG2b, V domains shown, mouse IgG2b) VH: DVQLVESGGGLVQPGGSRKLSCAASGFTFSSFGMHWVRQAPEKGLEWVAYISSGSSTIYYADTVKGRFTISRDNPKNTLFLQMTSLRSEDTAMYYCARYYHYAMDYWGQGTSVTVSS VL: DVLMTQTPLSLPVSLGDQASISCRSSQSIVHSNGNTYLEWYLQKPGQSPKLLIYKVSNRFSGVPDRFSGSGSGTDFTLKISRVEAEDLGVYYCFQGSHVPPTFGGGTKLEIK",
    "kon / M⁻¹ s⁻¹": 382000
  },
  {
    "binder": "IR-121 antibody (antibody, mouse IgG2b, V domains shown, mouse IgG2b) VH: DVQLVESGGGLVQPGGSRKLSCAASGFTFSSFGMHWVRQAPEKGLEWVAYISSGSSTIYYADTVKGRFTISRDNPKNTLFLQMTSLRSEDTAMYYCATYGIYAMDYWGQGTSVTVSS VL: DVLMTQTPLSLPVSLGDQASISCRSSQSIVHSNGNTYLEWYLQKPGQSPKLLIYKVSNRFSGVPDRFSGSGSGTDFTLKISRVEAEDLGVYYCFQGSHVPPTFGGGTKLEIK",
    "kon / M⁻¹ s⁻¹": 98700
  }
]

Next up:
stdin: Quick one: kon of IR-146 antibody (antibody, mouse IgG2a, V domains shown, mouse IgG2a) VH: DVQLVESGGGLVQPGGSRKLSCAASGFTFSSFGMHWVRQAPEKGLEWVAYISSGSSTIYYADTVKGRFTISRDNPKNTLFLQMTSLRSEDTAMYYCARGGTGAMDYWGQGTSVTVSS VL: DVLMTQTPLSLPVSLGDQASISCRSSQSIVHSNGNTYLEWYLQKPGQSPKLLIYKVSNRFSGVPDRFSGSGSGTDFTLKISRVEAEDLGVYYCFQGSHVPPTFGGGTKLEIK ?
stdout: 361000
